These entries and their values trace back to patent US20250270339A1.

# assayed-system: T1, Full length Mouse TfR on CHO cells (mouse, UniProt Q62351 1-763)
# T1 construct: also called CHO + muTfR
# T1 sequence (Q62351 whole entry): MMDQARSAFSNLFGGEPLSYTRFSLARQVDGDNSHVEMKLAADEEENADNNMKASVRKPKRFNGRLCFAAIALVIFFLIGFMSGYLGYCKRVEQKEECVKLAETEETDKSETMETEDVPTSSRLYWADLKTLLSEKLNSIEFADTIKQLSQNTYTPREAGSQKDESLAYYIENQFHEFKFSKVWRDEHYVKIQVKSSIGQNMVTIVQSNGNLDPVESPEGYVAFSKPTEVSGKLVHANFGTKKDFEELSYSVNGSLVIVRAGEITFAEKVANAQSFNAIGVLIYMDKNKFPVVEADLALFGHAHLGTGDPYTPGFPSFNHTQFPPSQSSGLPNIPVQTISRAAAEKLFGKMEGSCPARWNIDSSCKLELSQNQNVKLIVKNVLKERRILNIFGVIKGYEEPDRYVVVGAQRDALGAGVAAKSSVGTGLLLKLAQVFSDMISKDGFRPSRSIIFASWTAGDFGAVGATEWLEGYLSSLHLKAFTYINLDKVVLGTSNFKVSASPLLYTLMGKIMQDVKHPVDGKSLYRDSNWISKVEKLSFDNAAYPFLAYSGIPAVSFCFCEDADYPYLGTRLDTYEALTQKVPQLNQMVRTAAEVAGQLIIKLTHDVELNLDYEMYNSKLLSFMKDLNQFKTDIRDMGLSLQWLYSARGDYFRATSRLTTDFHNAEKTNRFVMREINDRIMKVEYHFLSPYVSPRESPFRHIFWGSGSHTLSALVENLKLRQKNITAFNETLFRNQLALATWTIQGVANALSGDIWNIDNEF
# assay-comment: FACS MFI, supernatant
recorded-metric: fold over parental (CHO WT)

1. TfR15 (mouse hybridoma antibody) (antibody, V domains shown, mouse IgG in hybridoma supernatant) VH: QVQLQQPGSELVRPGASVKLSCKASGYTFTSYWMHWVKQRPGQGLEWIGNIYPGSGSSNYDEKFKSKATLTVDTSSSTAYMQLNSLTSEDSAVYYCTRSSYYGNFDTMDNWGQGTSVTVSS VL: QIVLTQSPAIMSASPGEKVTMTCSASSSIRYMNWYQQKPVTSPKRWIYDTSTLASGVPARFSGSGSGTSYSLTISSMEAEDAATYYCHQRSSYPWTFGGGTKLEIK
1 fold
2. TfR28 (mouse hybridoma antibody) (antibody, V domains shown, mouse IgG in hybridoma supernatant) VH: DVQLQESGPGLVKPSQSLSLTCTVTGYSITSDYAWNWIRQFPGNKLEWMGYISYSGSTSYNPSLRSRISITRDTSKNQFFLQLNSVTTEDTATYYCAIRGYRYEEDYWGQGTTLTVSS VL: QIVLTQSPAIMSASPREKVTMTCSASSSISSMHWYQQKPGTSPKRWIYDTSKLASGVPARFSGSGSGTSYSLTISSMEAEDAATYYCHQRSSYPWTFGGGTKLEIK
1 fold

Consider TfR26 (mouse hybridoma antibody) (antibody, V domains shown, mouse IgG in hybridoma supernatant) VH: QVQLHQSGPELVKPGASVKMSCKASGYTFTNYYIHWVKQRPGQGLEWIGWIYPGDGVTHYNEKFKGKTTLTADKSSSTAYMLLSSLTSEDSAIYFCARDKDVPGMDYWGQGTSVTVSS VL: DIVMTQSPSSLTVTSGEKVTMSCKSSQSLLNSENQKNYLTWYQQKPGQPPKLLIYWASTRESGVPDRFTGSGSGPDFTLTISSVQAEDLAVYYCQNDYSYPLTFGAGTKLELK . Its measured fold over parental (CHO WT) is 1 fold
